- system.name: US28 receptor (Human cytomegalovirus, UniProt P69332)
- Construct: expressed in transfected cells; host or cells: HEK 293T cells, transiently transfected
- Sequence (P69332 whole entry): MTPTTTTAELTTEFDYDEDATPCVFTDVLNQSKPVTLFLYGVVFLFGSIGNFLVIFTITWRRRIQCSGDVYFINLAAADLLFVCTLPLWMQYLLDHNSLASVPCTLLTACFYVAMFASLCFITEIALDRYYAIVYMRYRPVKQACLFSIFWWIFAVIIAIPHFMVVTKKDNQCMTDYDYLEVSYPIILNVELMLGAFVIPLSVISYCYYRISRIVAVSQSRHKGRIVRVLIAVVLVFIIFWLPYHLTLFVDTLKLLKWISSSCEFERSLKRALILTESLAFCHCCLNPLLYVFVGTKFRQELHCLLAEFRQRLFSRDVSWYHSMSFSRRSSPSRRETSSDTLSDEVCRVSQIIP
- assay.method.text: PathDetect trans Elk1 luciferase reporter gene assay in US28-transfected 293T HEK cells
- Assay type: cell-based, Human Cytomegalovirus (HCMV)
- condition.info: read-out: Efficacy(%), maximum intrinsic activity from dose-response curve; negative = inverse agonism
- Experimental: Having generated a homologous series of chalcones and flavones, their ability to interact with the US28 receptor in human embryonic kidney (HEK) cells was investigated using an Elk-1 gene reporter assay (FIG. 2). […] 1050 values of the homologous series were also determined in Chinese hamster ovary (CHO) cells in order to assess the relative toxicities of each member of the series in a different cell line (see Table 1). […]
Listed here: items and their measured Emax.
assay.metric: Emax

[
  {
    "molecule": "COc1ccc(I)cc1/C=C/C(=O)c1ccccc1O [Compound 8g]",
    "endpoint.result": "~94%"
  },
  {
    "molecule": "COc1ccc(Br)cc1/C=C/C(=O)c1ccccc1O [Compound 8b]",
    "endpoint.result": "~44%"
  },
  {
    "molecule": "COc1ccc(C)cc1-c1oc2ccccc2c(=O)c1O [Compound 9j]",
    "endpoint.result": "-38%"
  },
  {
    "molecule": "COc1cc(Br)cc(/C=C/C(=O)c2ccccc2O)c1OC [Compound 8d]",
    "endpoint.result": "~52%"
  }
]

Data origin, for the record: patent US9629822B2
